molecular target: CDKL2 (human) (UniProt Q92772); assay: KINOMEscan competition binding; details: compound 10.0 µM
Sequence (Q92772 whole entry, looked up): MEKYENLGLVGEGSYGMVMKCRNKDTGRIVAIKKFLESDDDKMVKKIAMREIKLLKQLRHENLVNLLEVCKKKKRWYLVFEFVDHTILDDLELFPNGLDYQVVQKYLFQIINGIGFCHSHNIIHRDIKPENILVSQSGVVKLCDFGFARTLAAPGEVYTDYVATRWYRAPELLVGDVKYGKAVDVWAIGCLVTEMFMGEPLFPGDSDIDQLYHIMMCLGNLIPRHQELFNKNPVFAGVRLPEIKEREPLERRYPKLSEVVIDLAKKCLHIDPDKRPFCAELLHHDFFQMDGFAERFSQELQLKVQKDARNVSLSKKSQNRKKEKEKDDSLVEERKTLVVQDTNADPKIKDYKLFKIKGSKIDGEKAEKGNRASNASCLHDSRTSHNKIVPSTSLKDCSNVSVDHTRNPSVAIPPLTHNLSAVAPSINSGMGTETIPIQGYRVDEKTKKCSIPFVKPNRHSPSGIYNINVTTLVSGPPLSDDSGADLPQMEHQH

[
  {
    "RECORD SMILES": "O=C(O)c1ccc(Nc2ncc3c(n2)-c2ccc(Cl)cc2C(c2c(F)cccc2F)=NC3)cc1",
    "kinase still bound, per cent of control [%]": 86
  },
  {
    "RECORD SMILES": "Cc1ccc(C(=O)Nc2cccc(C(F)(F)F)c2)cc1Nc1cncc(C(N)=O)c1",
    "kinase still bound, per cent of control [%]": 100
  },
  {
    "RECORD SMILES": "CCN1CCN(Cc2ccc(Nc3ncc4c(n3)N(C)c3ccccc3C(=O)N4C)cc2C(F)(F)F)CC1",
    "kinase still bound, per cent of control [%]": 80
  },
  {
    "RECORD SMILES": "C[C@@H](Oc1cc(-n2cnc3ccc(CN4CCN(C)CC4)cc32)sc1C(N)=O)c1ccccc1C(F)(F)F",
    "kinase still bound, per cent of control [%]": 90
  },
  {
    "RECORD SMILES": "C=CC(=O)Nc1cccc(Nc2nc(N[C@H]3CC[C@H](N(C)C)CC3)nc3c2ncn3C(C)C)c1",
    "kinase still bound, per cent of control [%]": 100
  },
  {
    "RECORD SMILES": "CN(C)C/C=C/C(=O)Nc1cccc(Nc2ncc3c(n2)N(C)c2ccccc2C(=O)N3C)c1",
    "kinase still bound, per cent of control [%]": 92
  },
  {
    "RECORD SMILES": "N#Cc1c(NC(=O)c2cccc3ccccc23)sc2c1CCCC2",
    "kinase still bound, per cent of control [%]": 97
  },
  {
    "RECORD SMILES": "CC[C@@H]1C(=O)N(C)c2cnc(Nc3ccc(C(=O)NC4CCN(C)CC4)cc3OC)nc2N1C1CCCC1",
    "kinase still bound, per cent of control [%]": 100
  },
  {
    "RECORD SMILES": "O=C(NOC[C@H](O)CO)c1ccc(F)c(F)c1Nc1ccc(I)cc1F",
    "kinase still bound, per cent of control [%]": 87
  }
]

###

molecular target: CDKL1 (human) (UniProt Q00532); test: KINOMEscan competition binding; conditions: compound 10.0 µM
Sequence (Q00532 whole entry, looked up): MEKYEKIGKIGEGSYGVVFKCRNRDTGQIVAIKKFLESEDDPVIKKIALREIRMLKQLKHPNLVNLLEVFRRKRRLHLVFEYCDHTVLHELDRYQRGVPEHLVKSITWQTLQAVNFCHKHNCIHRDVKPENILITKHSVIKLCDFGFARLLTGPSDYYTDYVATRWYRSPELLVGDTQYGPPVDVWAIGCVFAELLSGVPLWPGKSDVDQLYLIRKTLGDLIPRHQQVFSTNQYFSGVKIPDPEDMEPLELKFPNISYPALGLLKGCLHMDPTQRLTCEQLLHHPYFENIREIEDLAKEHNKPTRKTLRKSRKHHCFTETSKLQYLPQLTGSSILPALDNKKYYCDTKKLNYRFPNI
Overview of reported kinase still bound, per cent of control across a group of compounds:

[
  {
    "RECORD SMILES": "O=C(NC1CC1)c1cccc(-c2ccc3c(NC(=O)C4CC4)n[nH]c3c2)c1",
    "MEASUREMENT UNIT": "%",
    "kinase still bound, per cent of control": 58
  },
  {
    "RECORD SMILES": "CCCS(=O)(=O)Nc1ccc(F)c(C(=O)c2c[nH]c3ncc(-c4ccc(Cl)cc4)cc23)c1F",
    "MEASUREMENT UNIT": "%",
    "kinase still bound, per cent of control": 100
  },
  {
    "RECORD SMILES": "CCC(=O)N1CCN(c2ccc(-n3c(=O)ccc4cnc5ccc(-c6cnc7ccccc7c6)cc5c43)cc2C(F)(F)F)CC1",
    "MEASUREMENT UNIT": "%",
    "kinase still bound, per cent of control": 100
  },
  {
    "RECORD SMILES": "COc1cc(N2CCN(C)CC2)ccc1Nc1nc(N)c(C(=O)c2c(Cl)cccc2Cl)s1",
    "MEASUREMENT UNIT": "%",
    "kinase still bound, per cent of control": 88
  },
  {
    "RECORD SMILES": "C=CC(=O)Nc1cccc(Nc2nc(N[C@H]3CC[C@H](N(C)C)CC3)nc3c2ncn3C(C)C)c1",
    "MEASUREMENT UNIT": "%",
    "kinase still bound, per cent of control": 100
  },
  {
    "RECORD SMILES": "Cc1ccc(NC(=O)c2cccc(C(C)(C)C#N)c2)cc1Nc1ccc2ncn(C)c(=O)c2c1",
    "MEASUREMENT UNIT": "%",
    "kinase still bound, per cent of control": 100
  },
  {
    "RECORD SMILES": "C=CC(=O)Nc1cc(NC(=O)c2ccc(C)c(NC(=O)c3ccno3)c2)cc(C(F)(F)F)c1",
    "MEASUREMENT UNIT": "%",
    "kinase still bound, per cent of control": 100
  },
  {
    "RECORD SMILES": "Nc1ccc(-c2ccc3ncc4ccc(=O)n(-c5cccc(C(F)(F)F)c5)c4c3c2)cn1",
    "MEASUREMENT UNIT": "%",
    "kinase still bound, per cent of control": 97
  },
  {
    "RECORD SMILES": "O=C(O)c1ccc(Nc2ncc3c(n2)-c2ccc(Cl)cc2C(c2c(F)cccc2F)=NC3)cc1",
    "MEASUREMENT UNIT": "%",
    "kinase still bound, per cent of control": 100
  }
]
